Study target: M3 muscarinic receptor (Rattus norvegicus)
Construct: Submandibular glands and heart were isolated and placed in ice cold homogenising buffer; from tissue; host or cells: rat submandibular gland membrane homogenate
Sequence (P08483 whole entry): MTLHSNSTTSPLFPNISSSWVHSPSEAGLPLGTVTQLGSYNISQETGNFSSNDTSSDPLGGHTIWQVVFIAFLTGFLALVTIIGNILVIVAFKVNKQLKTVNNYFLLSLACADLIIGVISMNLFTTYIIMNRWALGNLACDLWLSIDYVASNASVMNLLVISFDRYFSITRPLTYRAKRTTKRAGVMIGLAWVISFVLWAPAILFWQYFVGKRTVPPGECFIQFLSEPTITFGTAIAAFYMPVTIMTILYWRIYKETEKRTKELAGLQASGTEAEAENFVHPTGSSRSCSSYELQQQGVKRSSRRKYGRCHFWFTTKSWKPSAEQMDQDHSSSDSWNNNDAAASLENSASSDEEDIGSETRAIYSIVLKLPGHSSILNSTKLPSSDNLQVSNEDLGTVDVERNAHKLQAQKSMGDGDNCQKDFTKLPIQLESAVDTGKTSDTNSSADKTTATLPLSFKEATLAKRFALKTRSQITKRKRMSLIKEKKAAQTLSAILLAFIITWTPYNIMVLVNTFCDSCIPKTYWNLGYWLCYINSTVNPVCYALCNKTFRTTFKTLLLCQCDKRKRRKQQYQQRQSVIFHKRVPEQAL
Test details: [3H]-N-methylscopolamine radioligand binding assay, rat submandibular gland membranes
Experimental context: Table IV; rat submandibular gland, [3H]NMS; read-out: Receptor Binding Assay (pKi) M3 (converted)
Measured Ki by item
Observable: Ki

Compound | Observable | Measurement
O=C(NC1C2CNCC21)C(O)(c1ccccc1)C1CCCC1 (stereo not shown) | Ki | > 1000 nM
O=C(N[C@H]1[C@@H]2CNC[C@@H]21)C(O)(c1ccccc1)C1CCCCCC1 (stereo partly shown) | Ki | 363 nM
O=C(N[C@H]1[C@@H]2CNC[C@@H]21)C(O)(c1ccccc1)C1CCCCC1 (stereo partly shown) | Ki | > 1000 nM
CC(C)(C)OC(=O)N(CCCCOC(=O)C(O)(c1ccc(F)cc1)c1ccc(F)cc1)C1C2CNCC21 (stereo not shown) | Ki | > 1000 nM
